system-under-test: P-gp (Homo sapiens (Human))
Sequence (P08183 whole entry): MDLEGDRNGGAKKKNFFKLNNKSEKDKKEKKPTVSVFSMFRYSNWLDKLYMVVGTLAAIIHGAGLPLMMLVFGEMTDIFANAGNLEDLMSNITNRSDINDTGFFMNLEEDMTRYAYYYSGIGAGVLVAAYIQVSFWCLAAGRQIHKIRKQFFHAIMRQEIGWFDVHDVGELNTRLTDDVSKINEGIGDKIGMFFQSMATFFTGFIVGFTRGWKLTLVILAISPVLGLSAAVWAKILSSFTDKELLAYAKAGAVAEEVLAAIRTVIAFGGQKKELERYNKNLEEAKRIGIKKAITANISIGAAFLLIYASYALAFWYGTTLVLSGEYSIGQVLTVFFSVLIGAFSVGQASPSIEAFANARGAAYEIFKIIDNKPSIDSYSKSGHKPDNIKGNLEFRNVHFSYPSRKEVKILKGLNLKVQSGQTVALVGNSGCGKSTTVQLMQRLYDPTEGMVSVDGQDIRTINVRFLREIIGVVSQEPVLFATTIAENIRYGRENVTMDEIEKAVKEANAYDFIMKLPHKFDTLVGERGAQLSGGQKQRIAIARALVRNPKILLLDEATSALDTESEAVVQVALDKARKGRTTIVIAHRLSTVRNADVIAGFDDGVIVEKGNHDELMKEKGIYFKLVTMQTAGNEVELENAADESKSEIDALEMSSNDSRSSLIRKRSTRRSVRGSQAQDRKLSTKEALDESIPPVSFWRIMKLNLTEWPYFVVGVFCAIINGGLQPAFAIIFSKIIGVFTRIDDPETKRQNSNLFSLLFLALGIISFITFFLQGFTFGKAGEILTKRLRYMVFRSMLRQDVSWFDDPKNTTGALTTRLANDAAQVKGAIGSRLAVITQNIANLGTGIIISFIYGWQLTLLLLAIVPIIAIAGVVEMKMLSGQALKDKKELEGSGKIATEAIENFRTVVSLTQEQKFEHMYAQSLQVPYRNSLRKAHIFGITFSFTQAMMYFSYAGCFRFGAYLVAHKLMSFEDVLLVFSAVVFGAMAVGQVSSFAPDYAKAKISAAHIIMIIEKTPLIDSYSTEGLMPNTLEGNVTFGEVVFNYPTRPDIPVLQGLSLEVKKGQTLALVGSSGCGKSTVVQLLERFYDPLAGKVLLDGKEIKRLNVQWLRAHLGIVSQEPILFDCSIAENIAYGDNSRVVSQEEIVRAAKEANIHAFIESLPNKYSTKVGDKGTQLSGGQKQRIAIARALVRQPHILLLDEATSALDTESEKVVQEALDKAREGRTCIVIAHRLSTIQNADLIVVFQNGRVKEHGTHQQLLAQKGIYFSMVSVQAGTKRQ
procedure-text: MDCK-MDR1 assay, Efflux Ratio (P-gp)
Format: in vitro ADME
experimental-parameters: dog; MDCK-MDR1 cells
readout-label: efflux ratio
API doc: respond with a numeric literal and nothing else, no unit.

Given the entry FCCn1cc(-c2ccncc2)c(-c2ccc(OCc3ccc4ncccc4n3)cc2)n1 [Example 2] , report its measured efflux ratio.
1.95

---

Task for the reader: assign each of the following compounds its reported half-life.
procedure-text: Human hepatocyte half-life
Format: in vitro ADME
experimental-parameters: hepatocytes; human (H); read-out: Hepatocyte T1/2
Give your result in h as a bare value.

Given the entry `FCCn1cc(-c2ccncc2)c(-c2ccc(OCc3ccc4ncccc4n3)cc2)n1` , report its measured half-life.
1.32

Given the entry Cn1cc(-c2ccncc2)c(-c2ccc(OCc3ccc4ccccc4n3)cc2)n1 [MP-10, reference compound] , report its measured half-life.
0.915
